Quick reference for apparent KD of MS2 coat protein among some sequences
system: MS2 coat protein; test: apparent KD of MS2 coat protein; designed switch direction (-1 OFF switch, 1 ON switch): 1; higher = weaker reporter binding; conditions: input ligand: none
State the result as a value with its unit after it.

Completed entries (count: 2):
SEQUENCE: AUUGCUUACGCAGGAUAUGAUGCGAAAAUUGCGUCAGAAGGGUGAAGUAUCUCAUUGCAACAGGACAUGAGGAUCACCCAUGUC [SameState NG1 #99] (Eterna round: R96, puzzle: Same State NG 1)
apparent KD of MS2 coat protein: 455 nM
--
SEQUENCE: GCAGGACGGUAAAACAUCUCACAUGAGGAUCACCCAUGUUGUGAGGAUAUGGAUCCUAAUUGGAUCCAGAAGGCACGGUCCUGC [Fiskers NG3ss - 30] (Eterna round: R96, puzzle: Same State NG 3)
apparent KD of MS2 coat protein: 27.8 nM

Query: GET /values?readout=apparent KD of MS2 coat protein&item= UAAAUAAUGUAAGGAUAUACAUGAGGAAUUCUCGUAGAAGGUACAUGACAUGAGGAUCACCCAUGUAUCGCUCCGUAGAGCGUA [Mat - Same State NG 1 - JL mod - D26] (Eterna round: R96, puzzle: Same State NG 1)
Reply: 48.8 nM

Query: GET /values?readout=apparent KD of MS2 coat protein&item= CCGUUCAAUAAACAUGAGGAUCACCCAUGUUAUAAUAUGGGUGAGGAUAUGCAUCUGAAACAGGUGCAGAAGGCAUAAGAGCGG [JL SSNG3 3.92] (Eterna round: R96, puzzle: Same State NG 3)
Reply: 100 nM

Query: GET /values?readout=apparent KD of MS2 coat protein&item= GCGGAACAUGAGGAUCACCCAUGUGGAGGGUGUAAAGGAUAUUAUAGAGAGAAGGUAGGGUAAGAAGGUUGCUGGG [JR_SS1_Sub090] (Eterna round: R96, puzzle: Same State 1)
Reply: 994 nM

From: the supplement of paper PMC9170038
